- System: HT29 colon
- test-details: NCI-60 one-dose screen, 48 h
- particulars: 10 µM unless noted
- Experimental: Growth inhibition of the HT29 human tumor cell line is measured as a screen for anti-cancer activity. Cells are grown in 96 well plates and exposed to the test compound for 48 hours. Compounds are tested at a single concentration, which is 10^-5 M for most compounds. The reported endpoint is percent growth (GI% or GIPRCNT), where numbers from 0 - 100% represent growth inhibition, and numbers from -100% - 0 represent cell death. For example, a value of 40 represents 60% growth inhibition. […]
The panel holds about 83,000 compounds, 20% with a hit somewhere; the sample as a whole holds those more often. Active and inactive are the calls of the source. The calls were made as follows: active = growth percent below 10; inactive = the rest.
Hello, when you answer, please use one of the following outcomes: true (active), false (inactive)

// param item: Cc1c(Cl)cc(-n2c(=O)c3ccccc3c3ccccc3c2=O)cc1Cl ; yields the recorded call
false

Value source: PubChem BioAssay (NCI)
